These entries and their values trace back to patent US9394263B2.

system: BIR2 domain of XIAP (Homo sapiens (Human), UniProt P98170, C202A/C213G)
Sequence (P98170 other isoform, or with tags, fused parts or gaps, stated change not applied): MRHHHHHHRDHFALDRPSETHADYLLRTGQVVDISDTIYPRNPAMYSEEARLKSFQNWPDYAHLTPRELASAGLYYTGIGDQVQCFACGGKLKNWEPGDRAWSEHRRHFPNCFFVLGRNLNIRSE
experiment_summary: TR-FRET assay for BIR2: inhibition of binding of XIAP BIR2 domain to Peptide A (SMAC-derived peptide)
assay_context: read-out: BIR2 IC50
Counter-ions that a name gives are not always drawn.
property: IC50 (nM)
Write the number in nM without appending the unit.

Here are 5 compounds together with their reported answers.
CN[C@@H](C)C(=O)N[C@H]1COc2c(C(=O)O)cccc2N(Cc2ccc(Br)c3ccccc23)C1=O [Example 54, trifluoroacetate] = 649
CN[C@@H](C)C(=O)N[C@H]1COc2c(C(=O)N3CCN(CCO)CC3)cccc2N(Cc2ccc(Br)c3ccccc23)C1=O [Example 55] = 957
CN[C@@H](C)C(=O)N[C@H]1COc2ccccc2N(Cc2cccc(Cl)c2)C1=O [Example 46] = 3110
CN[C@@H](C)C(=O)N[C@H]1COc2ccccc2N(Cc2c(OC)ccc3cc(C(=O)OC)ccc23)C1=O [Example 31, trifluoroacetate] = 189
CN[C@@H](C)C(=O)N[C@H]1COc2ccc(C(F)(F)F)cc2N(Cc2c(OC)ccc3cc(Br)ccc23)C1=O [Example 42, trifluoroacetate] = 57

Problem: Fill in the blank: the reported IC50 of CN[C@@H](C)C(=O)N[C@@H]1C(=O)N(Cc2c(OC)ccc3cc(Br)ccc23)c2cc(C(F)(F)F)ccc2O[C@H]1C [Example 43, trifluoroacetate] is ____.
Solution: 92

###

system: BIR3 domain of XIAP (Homo sapiens (Human), UniProt P98170)
Sequence (P98170 241-356 with tags or gaps limits assumed): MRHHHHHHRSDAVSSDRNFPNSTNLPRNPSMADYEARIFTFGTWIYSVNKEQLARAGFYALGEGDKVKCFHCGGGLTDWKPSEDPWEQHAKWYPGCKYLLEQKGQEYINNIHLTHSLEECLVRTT
experiment_summary: TR-FRET assay for BIR3: inhibition of binding of XIAP BIR3 domain to Peptide A (SMAC-derived peptide)
assay_context: read-out: BIR3 IC50
Where a name gives a salt, the structure may show the parent alone.
We begin with a simple list: items and their reported IC50.

CCN[C@@H](C)C(=O)N[C@@H]1C(=O)N(Cc2c(C#N)n(-c3ccccc3C#N)c3ccccc23)c2ccccc2O[C@H]1C [Example 77] = > 54.8 µM
CCN[C@@H](C)C(=O)N[C@@H]1C(=O)N(Cc2nn(-c3ccccc3C#N)c3ccccc23)c2ccccc2O[C@H]1C [Example 74, trifluoroacetate] = > 54.8 µM
CN[C@@H](C)C(=O)N[C@H]1COc2ccccc2N(Cc2nn(-c3ccccc3C#N)c3cc(Br)ccc23)C1=O [Example 72, trifluoroacetate] = > 54.8 µM
CN[C@@H](C)C(=O)N[C@H]1CSc2c(NC(=O)COCCOC)cccc2N(Cc2cccc3ccccc23)C1=O [Example 22, hydrochloride] = > 54.8 µM

Shift focus to the following entry.
Problem: Fill in the blank: the reported IC50 of CC[C@H](NC)C(=O)N[C@@H]1C(=O)N(Cc2c(OC)ccc3cc(Br)ccc23)c2ccc(F)cc2OC12CCOCC2 [Example 16, hydrochloride] is ____.
Solution: > 50 µM

###

system: BIR2 domain of XIAP (Homo sapiens (Human), UniProt P98170, C202A/C213G)
experiment_summary: TR-FRET assay for BIR2: inhibition of binding of XIAP BIR2 domain to Peptide A (SMAC-derived peptide);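 further: percent inhibition measured across a concentration series of each compound, from which the IC50 was derived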
Structures can show the parent of a compound that is named as a salt.
property: pIC50
Keep in mind that pIC50 stands for -log10 of concentration in molar terms.

Problem: Fill in the blank: the reported pIC50 of CN[C@@H](C)C(=O)N[C@@H]1C(=O)N(Cc2c(OC)cnc3ccccc23)c2ccccc2OC12CCOCC2 [Example 1r] is ____.
Solution: 6.85

Problem: Fill in the blank: the reported pIC50 of CN[C@@H](C)C(=O)N[C@H]1C(=O)N(Cc2c(OC)ccc3cc(Br)ccc23)c2ccccc2OC12CCOCC2 [Example 1f] is ____.
Solution: 5.36

Problem: Fill in the blank: the reported pIC50 of CN[C@@H](C)C(=O)N[C@@H]1C(=O)N(Cc2nn(-c3ccc(C(=O)O)cc3C#N)c3ccccc23)c2ccccc2O[C@H]1C [Example 80, trifluoroacetate] is ____.
Solution: 6.93

Problem: Fill in the blank: the reported pIC50 of CN[C@@H](C)C(=O)N[C@H]1CSc2c(NC(=O)C3CCN(C(C)=O)CC3)cccc2N(Cc2cccc3ccccc23)C1=O [Example 23] is ____.
Solution: 6.43

Problem: Fill in the blank: the reported pIC50 of CN[C@@H](C)C(=O)N[C@@H]1C(=O)N(Cc2c(OC)ccc3cc(Br)ccc23)c2ccccc2OC12CCOCC2 [Example 1g] is ____.
Solution: 7.19
